Documented Fold Increase in Kd across a set of binders
# Assay System: T1, human CD166 protein (human, UniProt Q13740 28-526, limits assumed)
# T1 construct: Isolated human CD166 protein coated on ELISA plates; also called ALCAM
# T1 sequence (looked up): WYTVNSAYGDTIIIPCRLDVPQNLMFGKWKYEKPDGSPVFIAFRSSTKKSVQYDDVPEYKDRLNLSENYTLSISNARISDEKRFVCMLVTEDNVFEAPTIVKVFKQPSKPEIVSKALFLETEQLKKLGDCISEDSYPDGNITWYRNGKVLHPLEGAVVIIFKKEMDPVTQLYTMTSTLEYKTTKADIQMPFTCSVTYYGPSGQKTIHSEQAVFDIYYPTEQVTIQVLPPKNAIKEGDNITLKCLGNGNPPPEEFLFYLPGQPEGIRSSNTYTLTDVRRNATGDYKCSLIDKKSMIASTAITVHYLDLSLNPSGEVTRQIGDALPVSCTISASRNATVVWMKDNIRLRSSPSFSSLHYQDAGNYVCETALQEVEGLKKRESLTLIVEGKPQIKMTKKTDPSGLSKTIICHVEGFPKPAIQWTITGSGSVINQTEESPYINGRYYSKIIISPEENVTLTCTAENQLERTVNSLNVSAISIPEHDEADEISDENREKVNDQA
# Test Protocol: ELISA; relative to parental CD166 M9 vk1/HcB
Output spec: scalar in fold, unitless text.

Binder	Fold Increase in Kd (fold)
CD166-7614.7-2001 (antibody) chain 1: QITLKESGPTLVKPTQTLTLTCTFSGFSLSTYGMGVGWIRQPPGKALEWLANIWWSEDKHYSPSLKSRLTITKDTSKNQVVLTMTNMDPVDTATYYCVQIDYGNDYAFTYWGQGTLVTVSS chain 2: QGQSGQGLCHPLALSAWESCSSGGGSSGGSISSGLLSGRSDNHGGGSDIVMTQSPLSLPVTPGEPASISCRSSKSLLHSNGITYLYWYLQKPGQSPQLLIYQMSNLASGVPDRFSGSGSGTDFTLKISRVEAEDVGVYYCAQNLELPYTFGQGTKLEIK	139

The binder listed as CD166-16522-2001 (antibody) chain 1: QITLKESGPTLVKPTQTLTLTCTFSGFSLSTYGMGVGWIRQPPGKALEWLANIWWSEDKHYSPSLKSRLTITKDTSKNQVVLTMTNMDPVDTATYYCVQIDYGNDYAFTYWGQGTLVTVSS chain 2: QGQSGQGLEGWCLHPLCLWGAGGGGSSGGSISSGLLSGRSDNHGGGSDIVMTQSPLSLPVTPGEPASISCRSSKSLLHSNGITYLYWYLQKPGQSPQLLIYQMSNLASGVPDRFSGSGSGTDFTLKISRVEAEDVGVYYCAQNLELPYTFGQGTKLEIK shows Fold Increase in Kd equal to 95

The reported measurements were obtained from patent US20160355587A1.
